Tested on: Aβ42
protocolDescription: In vivo efficacy: Aβ42 lowering in brain after single oral dose (Table 8); further: test concentration or dose not given here
runConditions: mouse brain soluble fraction, ELISA, compared to untreated animals
Excerpt: To determine whether acute administration of an Aβ42 lowering agent would reduce Aβ42 levels in vivo, non-transgenic rodents, e.g. mice or rats were used. […] Animals treated with the Aβ42 lowering agent were examined and compared to those untreated or treated with vehicle and brain levels of soluble Aβ42 and total Aβ would be quantitated by standard techniques, for example, using ELISA. […]
Record form. Attribute: Aβ42 (% Ctrl)_Mean. Fill in for each entry.
Numbers only, in % Ctrl.

Below are worked cases with known answers.
| mol | Aβ42 (% Ctrl)_Mean |
| --- | --- |
| COc1cc(Nc2cc(F)cc3c2nc(N2CCCC2)n3C)ccc1-c1cnc(C)o1 | 110 |
| COc1ccc(C)c(-c2cn3cccc(Nc4ccc(-c5cnc(C)o5)cc4)c3n2)c1 | 77 |
| COc1cc(Nc2cccc3c2nc(-c2ccc(F)cc2)n3C)ccc1-c1ocnc1C | 56 |
| COc1cccc(-c2nc3c(Nc4ccc(-c5cnc(C)o5)c(OC)c4)nc(C)cc3n2C)c1 | 71 |
| COc1cc(Nc2cc(C(F)(F)F)nn3cc(C)nc23)ccc1-c1cnc(C)o1 | 89 |
| Cc1cc2c(nc(-c3ccc(F)cc3)n2C)c(Nc2ccc(-c3cnc(C)o3)cc2)n1 | 89 |

Fill in Aβ42 (% Ctrl)_Mean for each of the 2 compounds listed.
1. COc1cc(Nc2ccc(-c3cnc(C)o3)c(OC)c2)c2nc(-c3ccc(F)cc3)n(C)c2c1
2. COc1cc(Nc2cncc3c2nc(-c2ccc(F)cc2)n3C)ccc1-c1cnc(C)o1

1: 47; 2: 52

This collection of values is drawn from patent US8946426B2.
